src = the Human Domainome abundance scans (Beltran et al. 2025)

B1: Steroid hormone receptor ERR2, residues 100 to 176; numbered along this chain, O95718 (parent)
chain: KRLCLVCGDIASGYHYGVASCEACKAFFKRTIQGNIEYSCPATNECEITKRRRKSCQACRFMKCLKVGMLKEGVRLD

variants of: B1; assay: abundance fitness (aPCA) (normalised: wild type 0, dead -1); higher = more abundant; growth selection in yeast, the domain comes from the species named; settings: Homo sapiens
Please respond with reported abundance fitness for every item in the list.
Answer field: number only, no words.

stdin: Look up abundance fitness of KRLCLVCEDIASGYHYGVASCEACKAFFKRTIQGNIEYSCPATNECEITKRRRKSCQACRFMKCLKVGMLKEGVRLD [G8E] and report it.
stdout: 0.006

stdin: Look up abundance fitness of KRLCLVCGDIASGYHYGVASCEACKAFFKRTIQGNIEYSCPATNECEITKRRRKSCQACRFWKCLKVGMLKEGVRLD [M62W] and report it.
stdout: -0.136

stdin: Look up abundance fitness of KRLCLVCGDIASGYHYGVASCEACKAFFKCTIQGNIEYSCPATNECEITKRRRKSCQACRFMKCLKVGMLKEGVRLD [R30C] and report it.
stdout: -0.573

stdin: Look up abundance fitness of KRLCTVCGDIASGYHYGVASCEACKAFFKRTIQGNIEYSCPATNECEITKRRRKSCQACRFMKCLKVGMLKEGVRLD [L5T] and report it.
stdout: -0.031

stdin: Look up abundance fitness of KRLCLVCGDIASGYHYGVASCEACKAFFKRTIQGNIEYSCPATGECEITKRRRKSCQACRFMKCLKVGMLKEGVRLD [N44G] and report it.
stdout: 0.117

stdin: Look up abundance fitness of KRLCLVCGDRASGYHYGVASCEACKAFFKRTIQGNIEYSCPATNECEITKRRRKSCQACRFMKCLKVGMLKEGVRLD [I10R] and report it.
stdout: -0.046

stdin: Look up abundance fitness of KRLRLVCGDIASGYHYGVASCEACKAFFKRTIQGNIEYSCPATNECEITKRRRKSCQACRFMKCLKVGMLKEGVRLD [C4R] and report it.
stdout: -0.792

stdin: Look up abundance fitness of KRLCLVCGDIASGYHYGVASCEACKALFKRTIQGNIEYSCPATNECEITKRRRKSCQACRFMKCLKVGMLKEGVRLD [F27L] and report it.
stdout: -0.204

stdin: Look up abundance fitness of KRLCLVCGPIASGYHYGVASCEACKAFFKRTIQGNIEYSCPATNECEITKRRRKSCQACRFMKCLKVGMLKEGVRLD [D9P] and report it.
stdout: -0.894

stdin: Look up abundance fitness of KRLCLVCGDIASGYHNGVASCEACKAFFKRTIQGNIEYSCPATNECEITKRRRKSCQACRFMKCLKVGMLKEGVRLD [Y16N] and report it.
stdout: -0.093

stdin: Look up abundance fitness of KRLCLVCGDIASGYHYGVASCEACKAFFKRTIQGNIESSCPATNECEITKRRRKSCQACRFMKCLKVGMLKEGVRLD [Y38S] and report it.
stdout: -0.518

stdin: Look up abundance fitness of KRLCLVCGDIASGYHYGVASCEACKAFFKRTIQGNIEYSCPATNECSITKRRRKSCQACRFMKCLKVGMLKEGVRLD [E47S] and report it.
stdout: -0.229

stdin: Look up abundance fitness of KRLCLVCGDIASGYHYGVASCEACKAFFKRTFQGNIEYSCPATNECEITKRRRKSCQACRFMKCLKVGMLKEGVRLD [I32F] and report it.
stdout: -0.115

stdin: Look up abundance fitness of KRLCLVCGDIASGYHYGVASCEACKAFFKRTIQGNIEYSCPETNECEITKRRRKSCQACRFMKCLKVGMLKEGVRLD [A42E] and report it.
stdout: 0.027

stdin: Look up abundance fitness of KRLCLVCGDIASGYHYGVASCEACKAFFKRTIQGNIEYSCPATNECEITKRRRKSCQACHFMKCLKVGMLKEGVRLD [R60H] and report it.
stdout: 0.254

stdin: Look up abundance fitness of KRLCLVCGDIASGYHYGVASCEACKAFFKRTIQGNIEYSCPATNECEITKGRRKSCQACRFMKCLKVGMLKEGVRLD [R51G] and report it.
stdout: 0.033

stdin: Look up abundance fitness of KRLCLVCGDIASGYHYGVASCEACKAFFKRTIQGNIEYSCPATNNCEITKRRRKSCQACRFMKCLKVGMLKEGVRLD [E45N] and report it.
stdout: -0.235

stdin: Look up abundance fitness of KRLCLVCGDIASGYHYGVASCEACKAFFKRTIQGNIEYSCPATNECGITKRRRKSCQACRFMKCLKVGMLKEGVRLD [E47G] and report it.
stdout: -0.165
